- Target Entity: D(2) dopamine receptor (Homo sapiens)
- Test Conditions: Compound concentration 10 µM
- Description: PDSP Primary Binding target: DRD2 - Compounds are tested at 10 uM concentration, plate are incubated at room temperature in the dark for 90 minutes. Reaction are stopped by vacuum filtration onto 0.3% polyethyleneimine soaked filter mats using Filtermate harvester. Scintilation cocktail is then melted onto microwave-dried filters on a hot plate and the radio activity is counted in Microbia counter.
Measured inhibition, listed per entry.
Readout Label: inhibition (%)

- Compound Smiles: "COc1ccc(OC(F)(F)F)cc1CN[C@H]1CCCN[C@H]1c1ccccc1"
  Units Of Measure: "%"
  Test Value: 16.6
- Compound Smiles: "COc1ccc(NS(=O)(=O)c2sc3ccc(Cl)cc3c2C)cc1N1CCNCC1"
  Units Of Measure: "%"
  Test Value: 37.4
- Compound Smiles: "N#Cc1ccc(NC(=O)Nc2ccccc2Br)c2nn[nH]c12"
  Units Of Measure: "%"
  Test Value: -0.4
- Compound Smiles: "NC(=O)[C@@H]1CCCN1C(=O)[C@H](Cc1c[nH]cn1)NC(=O)[C@@H]1CCC(=O)N1"
  Units Of Measure: "%"
  Test Value: -4.39
- Compound Smiles: "CNc1nc(NCc2ccc(NS(C)(=O)=O)cc2Cl)cc(-c2ccccn2)n1"
  Units Of Measure: "%"
  Test Value: -4.41

====

- Target Entity: 5-hydroxytryptamine receptor 1A (Homo sapiens) (UniProt P08908)
- Sequence (P08908 whole entry): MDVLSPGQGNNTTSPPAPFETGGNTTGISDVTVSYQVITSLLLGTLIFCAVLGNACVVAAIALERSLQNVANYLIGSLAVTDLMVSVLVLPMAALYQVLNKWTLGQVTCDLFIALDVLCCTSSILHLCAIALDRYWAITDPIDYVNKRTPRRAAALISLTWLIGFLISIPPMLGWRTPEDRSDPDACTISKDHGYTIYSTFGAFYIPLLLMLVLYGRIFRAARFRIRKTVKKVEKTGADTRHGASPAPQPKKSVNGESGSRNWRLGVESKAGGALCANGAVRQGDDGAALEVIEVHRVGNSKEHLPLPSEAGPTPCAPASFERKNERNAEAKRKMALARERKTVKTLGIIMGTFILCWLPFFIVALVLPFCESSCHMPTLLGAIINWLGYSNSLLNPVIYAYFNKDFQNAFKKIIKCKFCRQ
- Test Conditions: Compound concentration 10 µM
- Description: PDSP Primary Binding target: HTR1A - Compounds are tested at 10 uM concentration, plate are incubated at room temperature in the dark for 90 minutes. Reaction are stopped by vacuum filtration onto 0.3% polyethyleneimine soaked filter mats using Filtermate harvester. Scintilation cocktail is then melted onto microwave-dried filters on a hot plate and the radio activity is counted in Microbia counter.
Measured inhibition, listed per entry.

- Molecule: "CC1CCN(CC[C@H]2CCCN2S(=O)(=O)c2cccc(O)c2)CC1"
  inhibition / %: 0.65
- Molecule: "OC[C@H]1O[C@@H](n2cnc3c(NC4CCCC4)ncnc32)[C@H](O)[C@@H]1O"
  inhibition / %: -5.74
- Molecule: "CN1C[C@H](C(=O)N[C@]2(C)O[C@@]3(O)[C@@H]4CCCN4C(=O)[C@H](Cc4ccccc4)N3C2=O)C[C@@H]2c3cccc4[nH]cc(c34)C[C@H]21"
  inhibition / %: 96.3
- Molecule: "CN1CCC(=C2c3ccccc3CC(=O)c3sccc32)CC1"
  inhibition / %: 6.57
- Molecule: "CC(C)(C(=O)O)c1ccc(C(O)CCCN2CCC(C(O)(c3ccccc3)c3ccccc3)CC2)cc1 (centres undefined)"
  inhibition / %: -5.94
- Molecule: "O=C(Cc1ccccc1)Nc1nc2ccc(Cl)cc2c2nc(-c3ccco3)nn12"
  inhibition / %: -8.72
- Molecule: "O=C(O)CC1CCC2(CC1)CCN(c1cc(OC(F)(F)F)ccc1Cl)CC2"
  inhibition / %: -1.2
- Molecule: "COc1ccc(Br)cc1S(=O)(=O)NC(=O)/C=C/c1ccccc1Cc1ccc2ccccc2c1"
  inhibition / %: 9.76
- Molecule: "CC(C)Oc1ccccc1C(=O)Nc1ccccc1C(=O)Nc1cccc(S(=O)(=O)C(F)(F)F)c1"
  inhibition / %: 6.76
- Molecule: "N#Cc1ccc2[nH]cc(CCCCN3CCN(c4ccc5oc(C(N)=O)cc5c4)CC3)c2c1"
  inhibition / %: 102
- Molecule: "COc1ccc(OC(F)(F)F)cc1CN[C@H]1CCCN[C@H]1c1ccccc1"
  inhibition / %: 56.2
- Molecule: "COc1cccc([C@H](O)C2CCN(CCc3ccc(F)cc3)CC2)c1OC"
  inhibition / %: 3.32
- Molecule: "NCCc1cn(S(=O)(=O)c2c(Cl)nc3sccn23)c2ccccc12"
  inhibition / %: 16.6
- Molecule: "Cc1cccc([C@H](C)c2c[nH]cn2)c1C"
  inhibition / %: -0.33
- Molecule: "Cc1c(OCc2cccc(-c3ccc(C(=O)O)cc3)c2)cc2c(c1C)C(=O)C(C1CCCC1)C2 (centres undefined)"
  inhibition / %: -4.54
- Molecule: "FC(F)(F)c1c(N2CCC(c3ccccc3)CC2)ccn2c(CC3CC3)nnc12"
  inhibition / %: -5.72
- Molecule: "CCCCN1CCC(COC(=O)c2cc(Cl)c(N)c3c2OCCO3)CC1"
  inhibition / %: -1.01
- Molecule: "C[C@@H](N)Cc1c[nH]cn1"
  inhibition / %: -9.3
- Molecule: "Cc1nc2sccn2c(=O)c1CCN1CCC(=C(c2ccc(F)cc2)c2ccc(F)cc2)CC1"
  inhibition / %: 30.5
- Molecule: "N[C@H](C(=O)O)c1ccc(C(=O)O)c(C(=O)O)c1"
  inhibition / %: 8.99
- Molecule: "COc1ccc2cc(S(=O)(=O)N[C@H](CC(=O)N[C@H](Cc3ccc(CN4[C@H](C)CCC[C@@H]4C)cc3)C(=O)N(C)C(C)C)c3ccc4c(c3)OCO4)ccc2c1"
  inhibition / %: -7.48
- Molecule: "OCc1cc(C(O)CNCCCCCCOCCCCc2ccccc2)ccc1O (centres undefined)"
  inhibition / %: 27.8
- Molecule: "Cc1cn2cc(CC(=O)N3CCC4(CC3)CN(Cc3ccc(-n5nccn5)cc3Cl)C4)nc2s1"
  inhibition / %: 13
- Molecule: "OC1(c2ccc(Cl)cc2)CCN(Cc2c[nH]c3ccccc23)CC1"
  inhibition / %: 2
- Molecule: "N#Cc1c[nH]c2c(C(=O)N3CCN(CCc4ccc(F)cc4)CC3)cccc12"
  inhibition / %: 21.2
- Molecule: "Cc1c(P(=S)(c2ccccc2)c2ccccc2)n2ccccc2[n+]1C/C=C/c1ccccc1"
  inhibition / %: 54.3
- Molecule: "O=S1(=O)c2cccc3cccc(c23)N1CCCN1CCN(c2ccc(F)cc2)CC1"
  inhibition / %: 91.6
- Molecule: "O=C(O)COc1cccc(CN(Cc2ccc(-n3cccn3)cc2)S(=O)(=O)c2cccnc2)c1"
  inhibition / %: -0.9
- Molecule: "C[C@H](Cc1cc2c(c(C(N)=O)c1)N(CCCO)CC2)NCCOc1ccccc1OCC(F)(F)F"
  inhibition / %: 100
- Molecule: "COc1ccc(NC(=O)c2ccc(-c3ccc(-c4noc(C)n4)cc3C)cc2)cc1OCCN(C)C"
  inhibition / %: 32.1
- Molecule: "O=c1ccc2ccc(OCCCCN3CCN(c4cccc5sccc45)CC3)cc2[nH]1"
  inhibition / %: 103
- Molecule: "CC(C)NCC(O)COc1cccc2[nH]ccc12 (centres undefined)"
  inhibition / %: 94.1
- Molecule: "CN1CCCC(n2nc(Cc3ccc(Cl)cc3)c3ccccc3c2=O)CC1 (centres undefined)"
  inhibition / %: 5.72
- Molecule: "O=C(Nc1ccc(Cl)cc1)Nc1cccc(-c2cccc(N3CCCC3)n2)c1"
  inhibition / %: 28.2
- Molecule: "O=C1O[C@]2(CC[C@H](C(=O)Nc3ccn(-c4ccccc4F)n3)CC2)c2cnccc21"
  inhibition / %: 19.7
- Molecule: "CSc1ccc(C(=O)N[C@@H]2CCCC[C@@H]2NC(=O)CNC(=O)c2cc(C(F)(F)F)ccc2NC(=O)NC(C)C)cc1"
  inhibition / %: 22.6
- Molecule: "Cc1c(C(=O)NC2CCCCC2)sc2nc3ccc(N)cc3n12"
  inhibition / %: 33.1
- Molecule: "CCCCC#Cc1nc(NC)c2ncn([C@@H]3O[C@H](CO)[C@@H](O)[C@H]3O)c2n1"
  inhibition / %: 3.96
- Molecule: "CCCCCNC(=O)NS(=O)(=O)c1cc([N+](=O)[O-])ccc1NC1CCCCC1"
  inhibition / %: 1.18

====

Measured inhibition, listed per entry.
- Target Entity: Delta-type opioid receptor (Homo sapiens) (UniProt P41143)
- Sequence (P41143 whole entry): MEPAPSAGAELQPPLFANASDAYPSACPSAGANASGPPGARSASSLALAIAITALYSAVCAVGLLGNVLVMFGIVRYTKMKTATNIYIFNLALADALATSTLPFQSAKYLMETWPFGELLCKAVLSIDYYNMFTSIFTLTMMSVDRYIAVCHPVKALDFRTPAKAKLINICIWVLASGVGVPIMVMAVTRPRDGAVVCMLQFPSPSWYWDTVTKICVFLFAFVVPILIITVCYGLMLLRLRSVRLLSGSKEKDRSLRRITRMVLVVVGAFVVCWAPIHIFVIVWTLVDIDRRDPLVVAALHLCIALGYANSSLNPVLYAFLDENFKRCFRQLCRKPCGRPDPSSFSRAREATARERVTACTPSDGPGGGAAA
- Test Conditions: Compound concentration 10 µM
- Description: PDSP Primary Binding target: OPRD1 - Compounds are tested at 10 uM concentration, plate are incubated at room temperature in the dark for 90 minutes. Reaction are stopped by vacuum filtration onto 0.3% polyethyleneimine soaked filter mats using Filtermate harvester. Scintilation cocktail is then melted onto microwave-dried filters on a hot plate and the radio activity is counted in Microbia counter.
Readout Label: inhibition (%)

- Compound: "CCCCc1nc(Cl)c(CO)n1Cc1ccc(-c2ccccc2-c2nnn[nH]2)cc1"
  Readout Label: "inhibition"
  Units Of Measure: "%"
  Test Value: 19.2
- Compound: "Cc1ccccc1C(=O)Nc1ccc(C(=O)N2CCCC(O)c3cc(Cl)ccc32)c(C)c1 (stereo unspecified)"
  Readout Label: "inhibition"
  Units Of Measure: "%"
  Test Value: 7.13
- Compound: "Nc1nc(NCCc2ccc(O)cc2)nc2nc(-c3ccco3)nn12"
  Readout Label: "inhibition"
  Units Of Measure: "%"
  Test Value: 2.38
- Compound: "CCc1cc2c(cc1CC)CC(NC[C@H](O)c1ccc(O)c3[nH]c(=O)ccc13)C2"
  Readout Label: "inhibition"
  Units Of Measure: "%"
  Test Value: 1.1
- Compound: "COc1ccc(S(=O)(=O)N2c3ccc(Cl)cc3[C@](O)(c3ccccc3Cl)[C@@H]2C(=O)N2CCC[C@H]2C(N)=O)cc1OC"
  Readout Label: "inhibition"
  Units Of Measure: "%"
  Test Value: 19
- Compound: "CCCCCNC(=O)NS(=O)(=O)c1cc([N+](=O)[O-])ccc1NC1CCCCC1"
  Readout Label: "inhibition"
  Units Of Measure: "%"
  Test Value: 8.56
- Compound: "N#Cc1ccc(NC(=O)Nc2ccccc2Br)c2nn[nH]c12"
  Readout Label: "inhibition"
  Units Of Measure: "%"
  Test Value: 16.4
- Compound: "Cc1ccccc1N1CCN(S(=O)(=O)C[C@]23CC[C@H](C[C@@H]2NC(=O)[C@@H](N)CCS(C)(=O)=O)C3(C)C)CC1"
  Readout Label: "inhibition"
  Units Of Measure: "%"
  Test Value: 7.82
- Compound: "Cc1c(OCc2cccc(-c3ccc(C(=O)O)cc3)c2)cc2c(c1C)C(=O)C(C1CCCC1)C2 (stereo unspecified)"
  Readout Label: "inhibition"
  Units Of Measure: "%"
  Test Value: -8.42
- Compound: "CCOC(=O)c1cc(C#N)c(N2CCC(C(=O)NS(=O)(=O)Cc3ccccc3)CC2)nc1C"
  Readout Label: "inhibition"
  Units Of Measure: "%"
  Test Value: -8.38
- Compound: "CNC[C@H](O)c1ccc(O)c(O)c1"
  Readout Label: "inhibition"
  Units Of Measure: "%"
  Test Value: 6.63
- Compound: "Cc1nn(C)c(C)c1-c1cccc2c1CC[C@H](N(C)C)C2"
  Readout Label: "inhibition"
  Units Of Measure: "%"
  Test Value: -4.68
- Compound: "COc1ccc(/C=C/CCCCOc2ccc(C(=O)c3cccc(C(=O)O)c3)cc2CCC(=O)O)cc1"
  Readout Label: "inhibition"
  Units Of Measure: "%"
  Test Value: 46.8
- Compound: "COc1cc2c(CCNC(C)=O)c[nH]c2cc1Cl"
  Readout Label: "inhibition"
  Units Of Measure: "%"
  Test Value: -3.58
- Compound: "Cc1c(P(=S)(c2ccccc2)c2ccccc2)n2ccccc2[n+]1C/C=C/c1ccccc1"
  Readout Label: "inhibition"
  Units Of Measure: "%"
  Test Value: 36.7
- Compound: "CC(C)NCC(O)COc1cccc2[nH]ccc12 (stereo unspecified)"
  Readout Label: "inhibition"
  Units Of Measure: "%"
  Test Value: -2.56
- Compound: "NCCc1c[nH]c2ccc(C(N)=O)cc12"
  Readout Label: "inhibition"
  Units Of Measure: "%"
  Test Value: -3.42
- Compound: "CCc1nn(CCCN2CCN(c3cccc(Cl)c3)CC2)c(=O)n1CCOc1ccccc1"
  Readout Label: "inhibition"
  Units Of Measure: "%"
  Test Value: 13
- Compound: "CCCCCNC(=N)N/N=C/c1c[nH]c2ccc(OC)cc12"
  Readout Label: "inhibition"
  Units Of Measure: "%"
  Test Value: 12.6
- Compound: "Cc1ccc2c(c1)c1c(n2CCc2ccc(C)nc2)CCN(C)C1"
  Readout Label: "inhibition"
  Units Of Measure: "%"
  Test Value: 1.39
- Compound: "NC[C@@H]1O[C@H](C23CC4CC(CC(C4)C2)C3)Cc2c1ccc(O)c2O"
  Readout Label: "inhibition"
  Units Of Measure: "%"
  Test Value: 3.82

Numbers sourced from ChEMBL document CHEMBL5442219.
